Reported T/C values for a set of compounds
System: L1210 leukemia ip in BDF1 mice, survival T/C
Assay: NCI In Vivo Anticancer Drug Screen. Data for tumor model L1210 Leukemia (intraperitoneal) in B6D2F1 (BDF1) mice
Conditions: endpoint: mean survival time; dose: 75.0 mg/kg/injection; schedule: Q01DX001 (ip); vehicle: carboxymethylcellulose (CMC); higher = longer survival
Toxic doses and inconclusive results are not listed.

As a guide, the following entries are already answered.
CCC1(CCC(C)C)C(=O)NC(=S)N(C)C1=O (centres undefined) : 89 % of control
O=C(O)c1cc(Cl)ccc1-c1ccc(Cl)cc1C(=O)Nc1ccc2c(c1)Cc1ccccc1-2 : 102 % of control
CCCCC(CCCC)NC(C)COC(=O)c1ccc(N)cc1 (centres undefined) : 104 % of control

Tell me reported T/C for O=C(C(=O)c1ccco1)c1ccccc1 , tested with L1210 leukemia ip in BDF1 mice, survival T/C.
100 % of control

All figures here come from PubChem BioAssay AID248.
